Target: JUN (Homo sapiens, UniProt P05412)
Sequence (P05412 252-315 limits assumed): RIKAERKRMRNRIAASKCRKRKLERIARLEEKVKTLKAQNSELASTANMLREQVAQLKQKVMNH
Assay: Direct-binding FRET assay
Parameters: made in house
Settings: 23°C; C-terminal rhodamine design; mean or single; read-out: Kd
pKd: −log10 of the molar value. Where no end group is shown, it is not given here.
measure name: pKd

[[record]]
item_sequence = "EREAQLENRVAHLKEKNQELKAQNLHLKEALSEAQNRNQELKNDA [XBP1-d1]"
reported_result = "< 6.00"

[[record]]
item_sequence = "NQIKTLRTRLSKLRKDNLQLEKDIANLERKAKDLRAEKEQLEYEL [ATF4-d1]"
reported_result = "> 6.70"

[[record]]
item_sequence = "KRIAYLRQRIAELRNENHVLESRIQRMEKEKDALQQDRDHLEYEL [ATF5-d1]"
reported_result = "< 5.30"


---

Biological target: BACH2 (Homo sapiens)
Sequence (Q9BYV9 646-709 limits assumed): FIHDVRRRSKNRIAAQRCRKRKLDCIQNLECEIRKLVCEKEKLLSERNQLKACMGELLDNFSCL
Assay: Direct-binding FRET assay
Parameters: made in house
Conditions: Kd, 4°C; C-terminal fluorescein design as donor, TAMRA target titrated
Where no end group is shown, it is not given here.
measure name: Kd

[[record]]
item_sequence = "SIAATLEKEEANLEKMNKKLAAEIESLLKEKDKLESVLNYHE [JUN-d1]"
reported_result = "> 1 µM"


---

Target: NFE2L3 (Homo sapiens)
Construct: made in house
Assay: Direct-binding FRET assay
Settings: 23°C; N-terminal rhodamine design; mean or single
pKd: −log10 of the molar value. Where no end group is shown, it is not given here.
measure name: pKd

[[record]]
item_sequence = "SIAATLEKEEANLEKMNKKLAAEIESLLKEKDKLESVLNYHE [JUN-d1]"
target_system = "NFE2L3 (Homo sapiens)"
reported_result = "< 6.00"


---

Target: NFE2L3 (Homo sapiens, UniProt Q9Y4A8)
Construct: made in house
Sequence (Q9Y4A8 578-641 limits assumed): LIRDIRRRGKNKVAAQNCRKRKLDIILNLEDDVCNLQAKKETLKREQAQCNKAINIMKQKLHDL
Test: Direct-binding FRET assay
Conditions: 4°C; C-terminal rhodamine design; repeat 1
Where no end group is shown, it is not given here.
measure name: Kd

[[record]]
item_sequence = "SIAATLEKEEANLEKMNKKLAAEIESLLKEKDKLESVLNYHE [JUN-d1]"
target_system = "NFE2L3 (Homo sapiens, UniProt Q9Y4A8)"
reported_result = "> 1000 nM"


---

Biological target: BACH2 (Homo sapiens)
Assay: Direct-binding FRET assay
Design: made in house
Settings: Kd, 23°C; C-terminal fluorescein design as donor, TAMRA target titrated
Where no end group is shown, it is not given here.
measure name: Kd

[[record]]
item_sequence = "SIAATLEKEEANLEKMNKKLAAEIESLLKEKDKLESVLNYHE [JUN-d1]"
reported_result = "> 1000 nM"


---

Biological target: NFE2L2 (Homo sapiens)
Construct: made in house
Sequence (Q16236 497-560 limits assumed): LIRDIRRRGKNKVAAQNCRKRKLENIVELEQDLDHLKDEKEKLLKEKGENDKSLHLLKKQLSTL
Test: Direct-binding FRET assay
Conditions: Kd, 37°C; C-terminal rhodamine design; mean or single
Where no end group is shown, it is not given here.
measure name: Kd

[[record]]
item_sequence = "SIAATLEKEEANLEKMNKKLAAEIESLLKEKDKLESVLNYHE [JUN-d1]"
measure_name = "Kd"
reported_result = "> 5 µM"


---

Target: FOS (Homo sapiens)
Sequence (P01100 137-200 limits assumed): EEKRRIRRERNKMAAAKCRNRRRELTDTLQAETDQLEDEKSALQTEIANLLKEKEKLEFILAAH
Test: Direct-binding FRET assay
Parameters: made in house
pKd: −log10 of the molar value. Where no end group is shown, it is not given here.
measure name: pKd

[[record]]
item_sequence = "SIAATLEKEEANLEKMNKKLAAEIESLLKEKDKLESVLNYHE [JUN-d1]"
measure_name = "pKd"
reported_result = "< 6.00"

